src = patent US11318157B2

target: PRMT5-MEP50 enzyme (Homo sapiens, UniProt O14744); construct: One virus expresses full length human PRMT5 with Flag-tag at N-terminus; Flag (N); purchased Charles River (Argenta); host or cells: insect cells (Sf9), baculovirus co-infection; assay: In vitro assay 1b: high throughput mass spectrometer assay of SAH formation, 1.25 nM enzyme, 120 min; assay type: biochemical; settings: averaged values; PRMT5-MEP50, 1.25 nM enzyme, 120 min; read-out: pIC50 Assay 1b (converted)
Sequence (O14744 whole entry): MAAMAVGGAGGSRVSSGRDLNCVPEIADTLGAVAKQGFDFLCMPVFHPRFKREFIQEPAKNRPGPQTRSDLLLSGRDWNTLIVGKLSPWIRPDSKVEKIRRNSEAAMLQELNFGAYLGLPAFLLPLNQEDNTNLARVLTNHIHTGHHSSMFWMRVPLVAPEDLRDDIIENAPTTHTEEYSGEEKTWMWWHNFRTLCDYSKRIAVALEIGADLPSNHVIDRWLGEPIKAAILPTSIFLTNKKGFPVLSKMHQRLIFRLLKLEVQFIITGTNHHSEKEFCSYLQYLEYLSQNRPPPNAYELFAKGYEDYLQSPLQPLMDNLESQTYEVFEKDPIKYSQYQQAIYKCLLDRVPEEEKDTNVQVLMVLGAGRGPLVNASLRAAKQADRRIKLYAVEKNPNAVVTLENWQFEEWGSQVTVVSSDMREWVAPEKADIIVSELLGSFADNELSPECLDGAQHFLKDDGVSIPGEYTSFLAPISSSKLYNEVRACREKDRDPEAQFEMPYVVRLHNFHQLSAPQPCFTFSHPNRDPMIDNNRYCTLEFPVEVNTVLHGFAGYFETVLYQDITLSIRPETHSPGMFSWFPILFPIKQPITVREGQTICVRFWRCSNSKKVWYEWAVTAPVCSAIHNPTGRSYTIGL
Sequence (Q9BQA1 whole entry partner): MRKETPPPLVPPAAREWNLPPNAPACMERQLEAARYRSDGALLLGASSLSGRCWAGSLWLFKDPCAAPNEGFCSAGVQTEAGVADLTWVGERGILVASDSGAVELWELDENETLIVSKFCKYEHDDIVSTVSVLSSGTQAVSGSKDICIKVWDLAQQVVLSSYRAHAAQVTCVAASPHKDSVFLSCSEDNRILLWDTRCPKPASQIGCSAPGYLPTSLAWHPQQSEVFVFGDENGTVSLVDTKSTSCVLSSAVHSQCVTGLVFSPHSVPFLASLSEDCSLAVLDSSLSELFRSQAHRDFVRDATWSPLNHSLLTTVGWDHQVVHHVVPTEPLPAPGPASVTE
Recorded log10 of IC50 for the following molecules
readout-type: log10 of IC50 (log10 of the value in nM)

{"query-smiles": "CNc1ncnc2c1ccn2[C@@H]1C[C@H](CCc2ccc3cc(F)c(N)nc3c2)[C@@H](O)[C@H]1O", "target-system": "PRMT5-MEP50 enzyme (Homo sapiens, UniProt O14744)", "log10 of IC50": 0.20}
{"query-smiles": "Nc1ncnc2c1ccn2[C@@H]1O[C@H](COc2ccc3cccnc3c2I)[C@@H](O)[C@H]1O", "target-system": "PRMT5-MEP50 enzyme (Homo sapiens, UniProt O14744)", "log10 of IC50": 3.20}
{"query-smiles": "Nc1nc2cc(CC[C@H]3C[C@@H](n4ccc5c(N)ncnc54)[C@H](O)[C@@H]3O)ccc2cc1C(F)(F)F", "target-system": "PRMT5-MEP50 enzyme (Homo sapiens, UniProt O14744)", "log10 of IC50": -0.50}
{"query-smiles": "Nc1ncnc2c1ccn2[C@@H]1O[C@H](COc2ccc3cc(C4CCCC4)cnc3c2)[C@@H](O)[C@H]1O", "target-system": "PRMT5-MEP50 enzyme (Homo sapiens, UniProt O14744)", "log10 of IC50": 2.30}
{"query-smiles": "CNc1ncnc2c1ccn2[C@@H]1O[C@H](CCc2ccc3cc(F)c(N)nc3c2)[C@@H](O)[C@H]1O", "target-system": "PRMT5-MEP50 enzyme (Homo sapiens, UniProt O14744)", "log10 of IC50": 1.60}
{"query-smiles": "COc1ncnc2c1ccn2[C@@H]1C[C@H](CCc2ccc3cc(C(F)(F)F)c(N)nc3c2)[C@@H](O)[C@H]1O", "target-system": "PRMT5-MEP50 enzyme (Homo sapiens, UniProt O14744)", "log10 of IC50": 0.80}
{"query-smiles": "COc1ncnc2c1ccn2[C@@H]1O[C@H](CN(C)c2ccc3cc(Br)cnc3c2)[C@@H](O)[C@H]1O", "target-system": "PRMT5-MEP50 enzyme (Homo sapiens, UniProt O14744)", "log10 of IC50": 3.90}
{"query-smiles": "Nc1ncnc2c1ccn2[C@@H]1O[C@H](COc2ccc3ccncc3c2)[C@@H](O)[C@H]1O", "target-system": "PRMT5-MEP50 enzyme (Homo sapiens, UniProt O14744)", "log10 of IC50": 3.30}

----------
Biological target: PRMT5-MEP50 enzyme (Homo sapiens, UniProt O14744)
Construct: One virus expresses full length human PRMT5 with Flag-tag at N-terminus; Flag (N); purchased Charles River (Argenta); host or cells: insect cells (Sf9), baculovirus co-infection
Assay: In vitro assay 1a: high throughput mass spectrometer assay of SAH formation, 10 nM enzyme, 60 min
Assay type: biochemical
Conditions: averaged values, PRMT5-MEP50, 10 nM enzyme, read-out: pIC50 Assay 1a (converted)
Text: Experimental Procedures In Vitro Assay (Assay 1a and 1b) PRMT5-MEP50 enzyme was purchased from Charles River (Argenta). The enzyme complex was produced in insect cells (Sf9) infected simultaneously with two baculoviruses. One virus expresses full length human PRMT5 with Flag-tag at N-terminus, the second virus expresses full length MEP50 with His6-TEV cleavage at N-terminus. […]
readout-type: IC50 (nM)

{"compound": "N#Cc1cnc2cc(OC[C@H]3O[C@@H](n4ccc5c(N)ncnc54)[C@H](O)[C@@H]3O)ccc2c1Cl [Compound 28]", "result-unit": "nM", "readout-qualifier": ">", "quantitative-result": 10000}
{"compound": "CN(C)Cc1ccc2ccc(OC[C@H]3O[C@@H](n4ccc5c(N)ncnc54)[C@H](O)[C@@H]3O)cc2n1 [Compound 97]", "result-unit": "nM", "readout-qualifier": ">", "quantitative-result": 10000}
{"compound": "Nc1ncnc2c1ccn2[C@@H]1C[C@H](CCc2ccc3cc(Br)cnc3c2)[C@@H](O)[C@H]1O [Compound 129]", "result-unit": "nM", "readout-qualifier": "=", "quantitative-result": 2.51}
{"compound": "Nc1ncnc2c1ccn2[C@@H]1O[C@H](COc2ccc3ccc(NCC4CC4)nc3c2)[C@@H](O)[C@H]1O [Compound 142]", "result-unit": "nM", "readout-qualifier": "=", "quantitative-result": 1.26}
{"compound": "COc1ncnc2c1ccn2[C@@H]1O[C@H](CN(C)c2ccc3cc(Br)cnc3c2)[C@@H](O)[C@H]1O [Compound 88]", "result-unit": "nM", "readout-qualifier": ">", "quantitative-result": 10000}
{"compound": "Nc1ncnc2c1ccn2[C@@H]1C[C@H](CCc2ccc3ccc(NC4CCCC4)nc3c2)[C@@H](O)[C@H]1O [Compound 146]", "result-unit": "nM", "readout-qualifier": "=", "quantitative-result": 0.251}
{"compound": "Nc1ncnc2c1ccn2[C@@H]1O[C@H](COc2ccc3ccccc3c2)[C@@H](O)[C@H]1O [Compound 9]", "result-unit": "nM", "readout-qualifier": "=", "quantitative-result": 3160}
{"compound": "O[C@@H]1[C@H](O)[C@@H](COc2ccc3ccc(NCc4ccc(Cl)cc4)nc3c2)O[C@H]1n1ccc2c(Cl)ncnc21 [Compound 131]", "result-unit": "nM", "readout-qualifier": "=", "quantitative-result": 7.94}
{"compound": "Nc1ncc2ccc(CC[C@H]3C[C@@H](n4ccc5c(Cl)ncnc54)[C@H](O)[C@@H]3O)cc2n1 [Compound 215]", "result-unit": "nM", "readout-qualifier": "=", "quantitative-result": 7.94}
{"compound": "Nc1ncnc2c1ccn2[C@@H]1C[C@H](CNc2ccc3cc(Br)cnc3c2)[C@@H](O)[C@H]1O [Compound 54a]", "result-unit": "nM", "readout-qualifier": "=", "quantitative-result": 7.94}
{"compound": "CNc1ccc2ccc(OC[C@H]3O[C@@H](n4ccc5cncnc54)[C@H](O)[C@@H]3O)cc2n1 [Compound 174]", "result-unit": "nM", "readout-qualifier": "=", "quantitative-result": 10}
{"compound": "Nc1ncnc2c1ccn2[C@@H]1O[C@H](COc2ccc3cccnc3n2)[C@@H](O)[C@H]1O [Compound 17]", "result-unit": "nM", "readout-qualifier": "=", "quantitative-result": 1000}
{"compound": "COc1cnc2cc(OC[C@H]3O[C@@H](n4ccc5c(N)ncnc54)[C@H](O)[C@@H]3O)ccc2c1 [Compound 26]", "result-unit": "nM", "readout-qualifier": "=", "quantitative-result": 63.1}
{"compound": "C=C(C)c1cnc2cc(OC[C@H]3O[C@@H](n4ccc5c(N)ncnc54)[C@H](O)[C@@H]3O)ccc2c1 [Compound 212]", "result-unit": "nM", "readout-qualifier": "=", "quantitative-result": 20}

----------
Attribute: IC50
target: PRMT5-MEP50 enzyme (Homo sapiens); construct: One virus expresses full length human PRMT5 with Flag-tag at N-terminus; Flag (N); purchased Charles River (Argenta); host or cells: insect cells (Sf9), baculovirus co-infection; test: In vitro assay 1a: high throughput mass spectrometer assay of SAH formation, 10 nM enzyme, 60 min; type: biochemical; conditions: averaged values, PRMT5-MEP50, 10 nM enzyme, read-out: pIC50 Assay 1a (converted)
readout-type: IC50 (nM)

{"query-smiles": "COc1cc2c(Cl)c(C#N)cnc2cc1OC[C@H]1O[C@@H](n2ccc3c(N)ncnc32)[C@H](O)[C@@H]1O", "target-system": "PRMT5-MEP50 enzyme (Homo sapiens)", "readout-qualifier": ">", "quantitative-result": 10000}
{"query-smiles": "Nc1ncnc2c1ccn2[C@@H]1C[C@H](OCc2ccc3cnccc3c2)[C@@H](O)[C@H]1O", "target-system": "PRMT5-MEP50 enzyme (Homo sapiens)", "readout-qualifier": ">", "quantitative-result": 10000}
{"query-smiles": "Nc1ccc2ccc(OC[C@H]3O[C@@H](n4ccc5c(N)ncnc54)[C@H](O)[C@@H]3O)cc2n1", "target-system": "PRMT5-MEP50 enzyme (Homo sapiens)", "readout-qualifier": "=", "quantitative-result": 2.51}
{"query-smiles": "CC(C)C(=O)O[C@@H]1[C@H](OC(=O)C(C)C)[C@@H](COc2ccc3cc(Br)cnc3c2)O[C@H]1n1ccc2c(N)ncnc21", "target-system": "PRMT5-MEP50 enzyme (Homo sapiens)", "readout-qualifier": ">", "quantitative-result": 10000}
{"query-smiles": "CNc1ncnc2c1ccn2[C@@H]1C[C@H](CCc2ccc3ccc(N)nc3c2)[C@@H](O)[C@H]1O", "target-system": "PRMT5-MEP50 enzyme (Homo sapiens)", "readout-qualifier": "=", "quantitative-result": 1.26}
